# protocol details: modulators of CIT2-GFP expression in yeast, confirmation, S. cerevisiae, GFP fusion, cherry picks, mother/daughter gates (AID 2274)
# condition context: S. cerevisiae CIT2-GFP strain, flow cytometry, 3 h; at 10 µM; hits give high values
observation type: GFP response, % of DMSO (%)
Entry rule: numbers only, all in %.

Measured GFP response, % of DMSO, CN(C)S(=O)(=O)c1cc(NC(=O)CN2CCOCC2)ccc1Cl : 100

Measured GFP response, % of DMSO, Cc1ccc(C(=O)O/N=C(\N)Cc2cccs2)c(Cl)c1 : 129

Measured GFP response, % of DMSO, CCCc1[nH]nc2c1C(c1ccc(OCCN3CCOCC3)c(OCC)c1)C(C#N)=C(N)O2 (stereo not drawn) : 107

Measured GFP response, % of DMSO, O=C(OC(c1ccc(NS(=O)(=O)c2ccccc2)cc1)(C(F)(F)F)C(F)(F)F)c1ccccc1 : 92.2

Measured GFP response, % of DMSO, Cc1cccc(CSCc2ccc(C(=O)NC(C)C)o2)c1 : 102

Measured GFP response, % of DMSO, NS(=O)(=O)c1ccc(S(=O)(=O)c2ccccc2)nc1 : 103

Measured GFP response, % of DMSO, COc1ccc(NC(=O)/C(C#N)=C/c2ncc([N+](=O)[O-])n2C)c(OC)c1 : 134

Measured GFP response, % of DMSO, O=C(NCc1ccncc1)C12CC3CC(CC(Cl)(C3)C1)C2 : 105

Measured GFP response, % of DMSO, COc1ccccc1-c1nnc(NC(=O)c2ccc3c(c2)OCO3)s1 : 100

Measured GFP response, % of DMSO, CC(=O)Nc1ccc(S(=O)(=O)NC(CC(=O)NCCC2=CCCCC2)C(C)C)cc1 (stereo not drawn) : 101

Measured GFP response, % of DMSO, O=C1C(Cl)=C(NCCc2ccccc2)C(=O)N1CCc1ccccc1 : 106

Measured GFP response, % of DMSO, O=C(COC(=O)c1ccc(NS(=O)(=O)c2cccs2)cc1O)Nc1nc2ccccc2s1 : 102

Measured GFP response, % of DMSO, O=C1C=CC(=O)N1c1ccc(Sc2ccc([N+](=O)[O-])cc2)cc1 : 79.7

* * *

Answer each item with its documented GFP response vs DMSO.
# protocol details: modulators of MEP2-GFP levels in yeast, confirmation, S. cerevisiae, flow cytometry GFP, cherry picks (AID 2272);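 further: ratio of well signal to plate DMSO mean so 100% equals DMSO level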
# condition context: S. cerevisiae MEP2-GFP strain, 3 h, at 10 µM, hits give high values
Entry rule: numbers only, all in %.

Measured GFP response vs DMSO, O=C(CCc1nc(-c2ccccc2)no1)Nc1cc(C(F)(F)F)ccc1Cl : 105

Measured GFP response vs DMSO, COc1ccc(-c2[nH]ncc2-c2ccc(Cl)cc2)c(O)c1 : 102

Measured GFP response vs DMSO, CC(C)c1nnc(NC(=O)c2nc(S(=O)(=O)Cc3ccccc3F)ncc2Cl)s1 : 110

Measured GFP response vs DMSO, CCOC(=O)C(N)CSC1CC(=O)N(c2ccc(C(=O)OC)cc2)C1=O (stereo not drawn) : 100

Measured GFP response vs DMSO, CCCc1ccc(OCC(=O)NNC(=S)NC(=O)c2ccco2)cc1 : 139

Measured GFP response vs DMSO, CCn1c2ccccc2c2cc(/C=N/n3cn[nH]c3=S)ccc21 : 97.2

Measured GFP response vs DMSO, CCCc1ccc(C(=O)N2CCN(c3ccccc3OCC)CC2)cc1 : 97.5

Measured GFP response vs DMSO, Cc1ccc(C(c2cc(Cl)c3cccnc3c2O)N2CCN(C)CC2)cc1 (stereo not drawn) : 116
